TEST SYSTEM: HLA DRB1*0701 (human)
ASSAY PROTOCOL: competition with 125I probe peptide, purified HLA
pIC50: −log10 of the molar value.
Returns Fulfilled if the recorded pIC50 is greater than or equal to 6, and Not fulfilled otherwise.

Here's what some known entries look like.
TGRCIACWRRPRTET (modifications not checked) [HPV31.E6.132 HTL epitope]	Not fulfilled
QRFHNIRGRWTGRCM (modifications not checked) [HPV16.E6.130 HTL epitope]	Fulfilled
WKHMRLECAIYYKAR (modifications not checked) [HPV16.E2.033 HTL epitope]	Fulfilled
WKHIRLECVLMYKAR (modifications not checked) [HPV31.E2.033 HTL epitope]	Not fulfilled
FHSIAGQYRGQCNTC (modifications not checked) [HPV45.E6.127 HTL epitope]	Not fulfilled

Lab note: next binder to report on.
Exam item: decide whether the reported pIC50 for DWVMAIFGVNPTVAEGF (modifications not checked) [HPV45.E1.228 HTL epitope] is at least 6.
Fulfilled
